Reference for the values: the supplement of paper PMC10126150

Recorded switch fluorescence ratio, one value per entry.
Test system: ATP;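 further: ATP exposure 15 min at 22 °C before imaging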
Test: switch fluorescence ratio, 500 uM ATP over buffer (Cy3 cluster intensity, sum of 5 cycles each) (fold (ratio)); higher = stronger signal-on switching upon ATP binding; sequences stand for … in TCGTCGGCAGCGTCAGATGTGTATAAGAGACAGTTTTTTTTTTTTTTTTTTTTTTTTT…TC
Details: aptamer strand: ATP DNA aptamer (quencher-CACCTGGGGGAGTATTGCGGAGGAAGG + anchor), 100 nM annealed; ATP concentration: 500 uM
Enter the number alone.

[[record]]
sequence_string = "TTGCCATCCT"
target_or_test_system = "ATP"
result_number = 0.98

[[record]]
sequence_string = "GCTTTAGGTA"
target_or_test_system = "ATP"
result_number = 0.984

[[record]]
sequence_string = "AAGGGGGGA"
target_or_test_system = "ATP"
result_number = 1.01

[[record]]
sequence_string = "TTTTGGGGGG"
target_or_test_system = "ATP"
result_number = 1.02

[[record]]
sequence_string = "TTTGTTAGGC"
target_or_test_system = "ATP"
result_number = 0.991

[[record]]
sequence_string = "TCAATTATAC"
target_or_test_system = "ATP"
result_number = 1.94


Sample CTGTCGTATG ; switch fluorescence ratio observed: 0.975

Sample CAAGCTTGAA ; switch fluorescence ratio observed: 0.963

Sample GCGAAGGCTT ; switch fluorescence ratio observed: 1.02

Sample GGTAGGTGGG ; switch fluorescence ratio observed: 1.01

Sample CGCGGAGCGC ; switch fluorescence ratio observed: 1.17

Sample ATTCTTGGGT ; switch fluorescence ratio observed: 1
